Hello, the source for this data is the supplement of paper PMC7595190, in case you need it.

Test system: CMK
Experiment: CellTox Green cytotoxicity fluorescence relative to DMSO vehicle (fold of vehicle RFU); higher = more cell death (loss of membrane integrity), active = 2 or more
Settings: 1 µM; 24 h
Mark one answer only. Choices: active, inactive

- Smiles Representation: "CC1=C(O)C(=O)C=C2C1=CC=C1[C@@]2(C)CC[C@@]2(C)[C@@H]3C[C@](C)(C(=O)O)CC[C@]3(C)CC[C@]12C"
  Group: "active"
- Smiles Representation: "COc1ccc2c(c1)/C(=C/c1cnc[nH]1)C(=O)N2"
  Group: "inactive"
- Smiles Representation: "Cn1c(COP(=O)(NCCBr)NCCBr)cnc1[N+](=O)[O-]"
  Group: "inactive"
- Smiles Representation: "COc1cc(C)[nH]c(=O)c1CNC(=O)c1c(C)n([C@H](C)C2CCOCC2)c2ccccc12"
  Group: "inactive"
- Smiles Representation: "O=C(O)C(=O)c1cn(Cc2ccccc2)c2ccc(-c3ccc(OC(F)(F)F)cc3)cc12"
  Group: "inactive"

Then there is this compound:
What did this assay record as the result for `COc1cc([C@@H]2c3cc4c(cc3[C@H](O)[C@H]3COC(=O)[C@@H]23)OCO4)cc(OC)c1OC` ? inactive

###

Reported CellTox Green cytotoxicity fluorescence values are given for each entry in this list.
Test system: MV4-11
Experiment: CellTox Green cytotoxicity fluorescence relative to DMSO vehicle (fold of vehicle RFU); higher = more cell death (loss of membrane integrity), active = 2 or more
Conditions: 0.1 µM; 24 h
Give the figure only, with no unit attached.

- Smiles Representation: "CC1=C(O)C(=O)C=C2C1=CC=C1[C@@]2(C)CC[C@@]2(C)[C@@H]3C[C@](C)(C(=O)O)CC[C@]3(C)CC[C@]12C"
  Target Or System: "MV4-11"
  Result Number: 0.966
- Smiles Representation: "CN[C@@H]1C[C@H]2O[C@@](C)([C@@H]1OC)n1c3ccccc3c3c4c(c5c6ccccc6n2c5c31)C(=O)NC4"
  Target Or System: "MV4-11"
  Result Number: 1.01
- Smiles Representation: "O=C(O)C(=O)c1cn(Cc2ccccc2)c2ccc(-c3ccc(OC(F)(F)F)cc3)cc12"
  Target Or System: "MV4-11"
  Result Number: 1.01
- Smiles Representation: "COc1ccc2c(c1)/C(=C/c1cnc[nH]1)C(=O)N2"
  Target Or System: "MV4-11"
  Result Number: 0.92

Which CellTox Green cytotoxicity fluorescence is reported for this compound? `Cn1c(COP(=O)(NCCBr)NCCBr)cnc1[N+](=O)[O-]` 0.97

Which CellTox Green cytotoxicity fluorescence is reported for this compound? `O=c1[nH]c2ccccc2n1C1CCN(Cc2ccc(-c3[nH]c4cc5ncnc5cc4nc3-c3ccccc3)cc2)CC1` 1

Which CellTox Green cytotoxicity fluorescence is reported for this compound? `COc1cc(C)[nH]c(=O)c1CNC(=O)c1c(C)n([C@H](C)C2CCOCC2)c2ccccc12` 0.942

Which CellTox Green cytotoxicity fluorescence is reported for this compound? `COc1cc([C@@H]2c3cc4c(cc3[C@H](O)[C@H]3COC(=O)[C@@H]23)OCO4)cc(OC)c1OC` 0.922

###

Tested on: Kasumi-1
Experiment: CellTox Green cytotoxicity fluorescence relative to DMSO vehicle (fold of vehicle RFU); higher = more cell death (loss of membrane integrity), active = 2 or more
Details: 0.01 µM; 48 h
Label No if CellTox Green cytotoxicity fluorescence falls below 1; label Yes in every other case.

Please tell me: is the molecule `COc1cc(C)[nH]c(=O)c1CNC(=O)c1c(C)n([C@H](C)C2CCOCC2)c2ccccc12` at or over 1 in terms of CellTox Green cytotoxicity fluorescence? No

Please tell me: is the molecule `O=c1[nH]c2ccccc2n1C1CCN(Cc2ccc(-c3[nH]c4cc5ncnc5cc4nc3-c3ccccc3)cc2)CC1` at or over 1 in terms of CellTox Green cytotoxicity fluorescence? No

###

System: MV4-11
Assay: CellTox Green cytotoxicity fluorescence relative to DMSO vehicle (fold of vehicle RFU); higher = more cell death (loss of membrane integrity), active = 2 or more
Conditions: 1 µM; 72 h
Mark one answer only. Choices: active, inactive

Consider the following illustrative entries.
- Molecule: "COc1cc([C@@H]2c3cc4c(cc3[C@H](O)[C@H]3COC(=O)[C@@H]23)OCO4)cc(OC)c1OC [Picropodophyllin]"
  Group: "active"
- Molecule: "COc1cc(C)[nH]c(=O)c1CNC(=O)c1c(C)n([C@H](C)C2CCOCC2)c2ccccc12"
  Group: "inactive"

What did this assay record as the result for `Cn1c(COP(=O)(NCCBr)NCCBr)cnc1[N+](=O)[O-]` ? active

###

Tested on: MV4-11
Assay: CellTox Green cytotoxicity fluorescence relative to DMSO vehicle (fold of vehicle RFU); higher = more cell death (loss of membrane integrity), active = 2 or more
Conditions: 1 µM; 24 h
Reported CellTox Green cytotoxicity fluorescence values are given for each entry in this list.
Give the figure only, with no unit attached.

- Compound: "COc1ccc2c(c1)/C(=C/c1cnc[nH]1)C(=O)N2"
  CellTox Green cytotoxicity fluorescence: 0.987
- Compound: "Cc1cc2c(C(C)C)c(O)c(O)c(C=O)c2c(O)c1-c1c(C)cc2c(C(C)C)c(O)c(O)c(C=O)c2c1O"
  CellTox Green cytotoxicity fluorescence: 0.973
- Compound: "Cn1c(COP(=O)(NCCBr)NCCBr)cnc1[N+](=O)[O-]"
  CellTox Green cytotoxicity fluorescence: 0.97

Which CellTox Green cytotoxicity fluorescence is reported for this compound? CN[C@@H]1C[C@H]2O[C@@](C)([C@@H]1OC)n1c3ccccc3c3c4c(c5c6ccccc6n2c5c31)C(=O)NC4 [Staurosporine] 1.36

Which CellTox Green cytotoxicity fluorescence is reported for this compound? CC[C@H](C)[C@@H]([C@@H](CC(=O)N1CCC[C@H]1[C@H](OC)[C@@H](C)C(=O)N[C@H](C)[C@@H](O)c1ccccc1)OC)N(C)C(=O)[C@@H](NC(=O)[C@@H](NC)C(C)C)C(C)C [Monomethyl auristatin E] 1.58

Which CellTox Green cytotoxicity fluorescence is reported for this compound? CC1=C(O)C(=O)C=C2C1=CC=C1[C@@]2(C)CC[C@@]2(C)[C@@H]3C[C@](C)(C(=O)O)CC[C@]3(C)CC[C@]12C [Celastrol] 1.29

###

Tested on: CMK
Assay: CellTox Green cytotoxicity fluorescence relative to DMSO vehicle (fold of vehicle RFU); higher = more cell death (loss of membrane integrity), active = 2 or more
Conditions: 1 µM; 48 h
Observation Type: CellTox Green cytotoxicity fluorescence
Give the figure only, with no unit attached.

- Smiles Representation: "COc1cc(C)[nH]c(=O)c1CNC(=O)c1c(C)n([C@H](C)C2CCOCC2)c2ccccc12"
  Target Or System: "CMK"
  CellTox Green cytotoxicity fluorescence: 0.973
- Smiles Representation: "CC1=C(O)C(=O)C=C2C1=CC=C1[C@@]2(C)CC[C@@]2(C)[C@@H]3C[C@](C)(C(=O)O)CC[C@]3(C)CC[C@]12C"
  Target Or System: "CMK"
  CellTox Green cytotoxicity fluorescence: 3.09
- Smiles Representation: "O=c1[nH]c2ccccc2n1C1CCN(Cc2ccc(-c3[nH]c4cc5ncnc5cc4nc3-c3ccccc3)cc2)CC1"
  Target Or System: "CMK"
  CellTox Green cytotoxicity fluorescence: 0.967

Which CellTox Green cytotoxicity fluorescence is reported for this molecule? `CN[C@@H]1C[C@H]2O[C@@](C)([C@@H]1OC)n1c3ccccc3c3c4c(c5c6ccccc6n2c5c31)C(=O)NC4` 1.45

Which CellTox Green cytotoxicity fluorescence is reported for this molecule? `O=C(O)C(=O)c1cn(Cc2ccccc2)c2ccc(-c3ccc(OC(F)(F)F)cc3)cc12` 0.972

Which CellTox Green cytotoxicity fluorescence is reported for this molecule? `COc1cc([C@@H]2c3cc4c(cc3[C@H](O)[C@H]3COC(=O)[C@@H]23)OCO4)cc(OC)c1OC` 2.12

Which CellTox Green cytotoxicity fluorescence is reported for this molecule? `Cn1c(COP(=O)(NCCBr)NCCBr)cnc1[N+](=O)[O-]` 1.24

###

System: MV4-11
Assay: CellTox Green cytotoxicity fluorescence relative to DMSO vehicle (fold of vehicle RFU); higher = more cell death (loss of membrane integrity), active = 2 or more
Settings: 1 µM; 72 h
Reported CellTox Green cytotoxicity fluorescence values are given for each entry in this list.
Give the figure only, with no unit attached.

- Molecule: "CC[C@H](C)[C@@H]([C@@H](CC(=O)N1CCC[C@H]1[C@H](OC)[C@@H](C)C(=O)N[C@H](C)[C@@H](O)c1ccccc1)OC)N(C)C(=O)[C@@H](NC(=O)[C@@H](NC)C(C)C)C(C)C [Monomethyl auristatin E]"
  Target Or System: "MV4-11"
  CellTox Green cytotoxicity fluorescence: 2.74
- Molecule: "CN[C@@H]1C[C@H]2O[C@@](C)([C@@H]1OC)n1c3ccccc3c3c4c(c5c6ccccc6n2c5c31)C(=O)NC4 [Staurosporine]"
  Target Or System: "MV4-11"
  CellTox Green cytotoxicity fluorescence: 2.42

Here's the next entry for you.
Which CellTox Green cytotoxicity fluorescence is reported for this molecule? CC1=C(O)C(=O)C=C2C1=CC=C1[C@@]2(C)CC[C@@]2(C)[C@@H]3C[C@](C)(C(=O)O)CC[C@]3(C)CC[C@]12C [Celastrol] 2.21
